assay.notes: growth inhibitors of H69AR lung tumor, primary screen, human, duplicate replicates (AID 580);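 further: 100% = mean luminescence of untreated wells and 0% = no signal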
protocol.conditions: H69AR lung tumor cells viability, ATP luminescence, 72 h; at 10 µM; active compounds read low
In plain terms, low viability, meaning strictly below 90%, gives yes, and everything else gives no.

[[record]]
compound = "CC(NS(=O)(=O)c1ccccc1)C(c1cccs1)N1CCN(C)CC1 (stereo unspecified)"
label = "no"

[[record]]
compound = "CCN(CC)S(=O)(=O)c1ccc(Cl)c(C(=O)OC)c1"
label = "no"

[[record]]
compound = "O=C1NC(c2cccs2)Nc2ccccc21 (stereo unspecified)"
label = "yes"

[[record]]
compound = "O=C(Cn1nnc(-c2ccc(S(=O)(=O)N3CCCC3)cc2)n1)NCC1CCCO1 (stereo unspecified)"
label = "no"

[[record]]
compound = "CCOc1cc(C2c3c(n[nH]c3C)C(=O)N2c2ccc(Br)cc2)ccc1O (stereo unspecified)"
label = "yes"


----------
assay.notes: 384-well plate pilot, post-Golgi transport modulator project, inhibition of yeast transport mutant growth (AID 636)
protocol.conditions: absorbance 615 nm, about 18 h, active compounds read high
measurement.kind: inhibition (%)

[[record]]
compound = "Cc1cc2ncn(N)c2cc1C"
measurement_kind = "inhibition"
unit_symbol = "%"
quantitative_readout = -7.7

[[record]]
compound = "COC(C)(C)c1cc(C(C)(C)C)nc(N)n1"
measurement_kind = "inhibition"
unit_symbol = "%"
quantitative_readout = -2.08

[[record]]
compound = "COc1ccccc1N1CCN(CCCNC(=O)Nc2ccccc2)CC1"
measurement_kind = "inhibition"
unit_symbol = "%"
quantitative_readout = -2.76

[[record]]
compound = "Cc1ccccc1N(CC(=O)NCC1CCCO1)C(=O)C1(C)CC(=O)N=C2C=CC=CN21 (stereo unspecified)"
measurement_kind = "inhibition"
unit_symbol = "%"
quantitative_readout = -1.05

[[record]]
compound = "Cn1cc(Br)c(C(=O)NC2CCCCC2)n1"
measurement_kind = "inhibition"
unit_symbol = "%"
quantitative_readout = 3.33

[[record]]
compound = "CCN(CC(=O)Nc1ccc(S(N)(=O)=O)cc1)S(=O)(=O)c1cc(C)ccc1OC"
measurement_kind = "inhibition"
unit_symbol = "%"
quantitative_readout = -3.55


----------
assay.notes: growth inhibitors of H69AR lung tumor, primary screen, human, duplicate replicates (AID 580);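 further: 100% = mean luminescence of untreated wells and 0% = no signal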
protocol.conditions: H69AR lung tumor cells viability, ATP luminescence, 72 h; at 10 µM; active compounds read low
Measured viability, listed per entry.
measurement.kind: viability (%)

[[record]]
compound = "Cc1cc2c(cc(C(=O)NCc3cccnc3)n2Cc2ccc(Cl)cc2)o1"
quantitative_readout = 98.2

[[record]]
compound = "Cc1cc(C)cc(N2CCCn3c2nc2c3c(=O)n(CCN3CCOCC3)c(=O)n2C)c1"
quantitative_readout = 83.3

[[record]]
compound = "COc1ccc(-c2nnc3ccc(SC(C(C)=O)C(C)=O)nn23)cc1OC"
quantitative_readout = 82.9

[[record]]
compound = "COc1ccc(-c2ccc(-c3nnc(-c4ccncc4)o3)cc2)cc1"
quantitative_readout = 96.3

[[record]]
compound = "CCc1nccn1S(=O)(=O)c1ccc(C)c(C)c1"
quantitative_readout = 99.6

[[record]]
compound = "Cc1cc(C(=O)NCCN2CCCCC2C)n(-c2ccccc2)n1 (stereo unspecified)"
quantitative_readout = 92.6


----------
In this section we review reported differential viability (reversal) values for a set of compounds.
assay.notes: reversal of MRP1-mediated doxorubicin resistance, pilot screen, H69AR cells, doxorubicin co-treatment (AID 601)
protocol.conditions: H69AR cells + 2 uM doxorubicin, CellTiter-Glo, 72 h; at 10 µM; active compounds read high
measurement.kind: differential viability (reversal) (%)

[[record]]
compound = "COc1ccc(C(=O)Nc2cccc(-c3nc4ncccc4o3)c2C)cc1OC"
quantitative_readout = 1.52

[[record]]
compound = "CC(O)c1n(C)c(Cl)c[n+]1C (centres undefined)"
quantitative_readout = -3.03

[[record]]
compound = "Cn1c2ccccc2c2ncn(CCCN3CCOCC3)c(=O)c21"
quantitative_readout = 1.77

[[record]]
compound = "O=C(O)c1ccc(COc2c(F)c(F)cc(F)c2F)cc1"
quantitative_readout = 0.99

[[record]]
compound = "CCN(C#N)c1nc(NC(C)C)nc(NC(C)C)n1"
quantitative_readout = 4.81

[[record]]
compound = "O=c1[nH]c2cccnc2n1Cc1ccco1"
quantitative_readout = 13.8

[[record]]
compound = "O=C(Cn1nnc(-c2cc(Cl)ccc2-n2cnnn2)n1)N1CCCc2ccccc21"
quantitative_readout = 9.45

[[record]]
compound = "CC1(C)OC(=O)C(=CNc2ccccc2F)C(=O)O1"
quantitative_readout = -1.11

[[record]]
compound = "CN(C)/C=N/c1ncnc2c1cnn2-c1ccc(C(F)(F)F)cn1"
quantitative_readout = -0.51

[[record]]
compound = "Cc1cc(C)cc(NC(=O)N2CCC(c3nc4ccccc4o3)CC2)c1"
quantitative_readout = 1.69

[[record]]
compound = "CCOC(=O)C1CCN(C(c2cc3cc(C)cc(C)c3[nH]c2=O)c2nnnn2C2CCCCC2)CC1 (centres undefined)"
quantitative_readout = 5.56

[[record]]
compound = "CCc1nnc(NC(=O)c2cc3c(s2)CCCCC3)s1"
quantitative_readout = -2.58

[[record]]
compound = "Cc1cnc(C(=O)OCC(=O)Nc2ccc(Cl)cc2Cl)cn1"
quantitative_readout = 16.4

[[record]]
compound = "CCSc1nc2ccccc2n1CC(N)=O"
quantitative_readout = 6.57

[[record]]
compound = "COCCn1c(SCC(=O)Nc2nnc(C)s2)nnc1-c1c[nH]c2ccccc12"
quantitative_readout = 14.8

[[record]]
compound = "CCCCNC(=O)c1nc2ncc(Br)cn2n1"
quantitative_readout = -5.97

[[record]]
compound = "Cc1ccc(-c2ccc(=O)n(CCC(=O)NCc3ccccn3)n2)cc1"
quantitative_readout = -1.96

[[record]]
compound = "CCOC(=O)C1CCN(c2c(NCCCN(CC)c3ccccc3)c(=O)c2=O)CC1"
quantitative_readout = 8.21

[[record]]
compound = "Cc1cc(OCC(=O)Nc2ccc3oc(-c4ccncc4)nc3c2)ccc1Cl"
quantitative_readout = 1.31

[[record]]
compound = "O=C(Nc1cccnc1)c1ccc2c(c1)C(=O)N(Cc1cccnc1)C2=O"
quantitative_readout = 7.77

[[record]]
compound = "O=C(CSc1nc(O)c(Cc2ccccc2)c(=O)[nH]1)Nc1ccccc1"
quantitative_readout = 0.23

[[record]]
compound = "CCCNC(=O)Nc1ccccc1C(=O)Nc1ccc(OC)cc1"
quantitative_readout = -9.12

[[record]]
compound = "Cc1nc2ncnn2c(Nc2ccc3c(c2)OCCO3)c1C"
quantitative_readout = -23.6

[[record]]
compound = "COC(=O)c1cc(OC)c(OCc2cc(C(=O)OC)oc2C)c(OC)c1"
quantitative_readout = 1.03


Provenance of the data: PubChem BioAssay
